Entries annotated with measured pKi
- target: Delta-type opioid receptor (Homo sapiens, UniProt P41143)
- Sequence (P41143 whole entry): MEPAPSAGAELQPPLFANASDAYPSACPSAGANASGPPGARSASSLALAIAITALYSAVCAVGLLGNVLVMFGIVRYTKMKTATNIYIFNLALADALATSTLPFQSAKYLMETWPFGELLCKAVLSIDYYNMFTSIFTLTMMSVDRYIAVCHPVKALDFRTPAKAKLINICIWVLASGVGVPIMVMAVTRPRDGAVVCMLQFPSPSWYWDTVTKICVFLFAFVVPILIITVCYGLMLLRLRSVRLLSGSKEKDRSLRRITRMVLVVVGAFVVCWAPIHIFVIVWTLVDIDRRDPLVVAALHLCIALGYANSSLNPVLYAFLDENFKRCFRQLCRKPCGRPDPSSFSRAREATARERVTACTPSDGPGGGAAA
- measurement notes: Displacement of [3H]-diprenorphine from human delta opioid receptor expressed in cell membranes
reported metric: pKi

[
  {
    "smiles structure": "CS(=O)(=O)CC(=O)N(CCN1[C@@H]2CC[C@H]1C[C@@H](c1cccc(C(N)=O)c1)C2)Cc1cccc(F)c1.O=C(O)C(F)(F)F",
    "observed value": "7 to 10.5"
  },
  {
    "smiles structure": "NC(=O)c1cccc([C@H]2C[C@H]3CC[C@@H](C2)N3CCN(Cc2c(F)cccc2F)C(=O)[C@@H](O)Cc2ccccc2)c1.O=C(O)C(F)(F)F",
    "observed value": "7 to 10.5"
  },
  {
    "smiles structure": "CC(CO)(CO)C(=O)N(CCN1[C@@H]2CC[C@H]1C[C@@H](c1cccc(C(N)=O)c1)C2)CC1CCCCC1",
    "observed value": "7 to 10.5"
  },
  {
    "smiles structure": "NC(=O)c1cccc([C@H]2C[C@H]3CC[C@@H](C2)N3CCN(CC2CCCCC2)C(=O)NCc2ccc(F)cc2)c1",
    "observed value": "7 to 10.5"
  }
]

* * *

- target: Mu-type opioid receptor (Homo sapiens)
- measurement notes: Intrinsic activity at human mu opioid receptor expressed in CHOK1 cell membranes at 0.00001 to 20 uM after 30 mins by GTP-Eu nucleotide exchange assay relative to DAMGO
- Format: functional
- condition info: CHO-K1
Entries annotated with measured Intrinsic activity

[
  {
    "compound": "C[C@H](CN1[C@@H]2CC[C@H]1C[C@@H](c1cccc(O)c1)C2)N(Cc1ccccc1)C(=O)C1CCCC1",
    "target": "Mu-type opioid receptor (Homo sapiens)",
    "Intrinsic activity": "< 40%"
  },
  {
    "compound": "O=C(C(O)CCc1ccccc1)N(CCN1[C@@H]2CC[C@H]1C[C@@H](c1cccc(O)c1)C2)CC1CCCCC1 (some centres undefined)",
    "target": "Mu-type opioid receptor (Homo sapiens)",
    "Intrinsic activity": "< 40%"
  },
  {
    "compound": "O=C(O)C1CCCCC1C(=O)N(CCN1[C@@H]2CC[C@H]1C[C@@H](c1cccc(O)c1)C2)CC1CCCCC1 (some centres undefined)",
    "target": "Mu-type opioid receptor (Homo sapiens)",
    "Intrinsic activity": "< 40%"
  },
  {
    "compound": "CC(C)CC(=O)N(CCN1[C@@H]2CC[C@H]1C[C@@H](c1cccc(O)c1)C2)Cc1c(F)cccc1F",
    "target": "Mu-type opioid receptor (Homo sapiens)",
    "Intrinsic activity": "< 40%"
  }
]

* * *

- target: Delta-type opioid receptor (Homo sapiens)
- measurement notes: Displacement of [3H]-diprenorphine from human delta opioid receptor expressed in cell membranes
reported metric: pKi

[
  {
    "smiles structure": "CC(CO)(CO)C(=O)N(CCN1[C@@H]2CC[C@H]1C[C@@H](c1cccc(C(N)=O)c1)C2)CC1CCCC1.O=C(O)C(F)(F)F",
    "observed value": "7 to 10.5"
  },
  {
    "smiles structure": "CC(CO)(CO)C(=O)N(CCN1[C@@H]2CC[C@H]1C[C@@H](c1cccc(C(N)=O)c1)C2)CC1CCC(F)(F)CC1.O=C(O)C(F)(F)F",
    "observed value": "7 to 10.5"
  },
  {
    "smiles structure": "O=C(O)CCC(=O)N(CCN1[C@@H]2CC[C@H]1C[C@@H](c1cccc(O)c1)C2)Cc1ccccc1",
    "observed value": "7 to 10.5"
  }
]

* * *

- target: Delta-type opioid receptor (Homo sapiens)
- measurement notes: Displacement of [3H]-diprenorphine from human delta opioid receptor expressed in cell membranes
reported metric: pKi

[
  {
    "smiles structure": "C[C@H](CN1[C@@H]2CC[C@H]1C[C@@H](c1cccc(O)c1)C2)N(Cc1ccccc1)C(=O)CCC1CCCC1",
    "observed value": "7 to 10.5"
  },
  {
    "smiles structure": "C[C@H](CN1[C@@H]2CC[C@H]1C[C@@H](c1cccc(O)c1)C2)N(Cc1ccccc1)C(=O)CCC(=O)O",
    "observed value": "7 to 10.5"
  },
  {
    "smiles structure": "NC(=O)c1cccc([C@H]2C[C@H]3CC[C@@H](C2)N3CCN(CC2CCCCC2)C(=O)CCCO)c1",
    "observed value": "7 to 10.5"
  },
  {
    "smiles structure": "NC(=O)c1cccc([C@H]2C[C@H]3CC[C@@H](C2)N3CCN(CC(F)(F)c2ccccc2)C(=O)[C@@H](O)CO)c1.O=C(O)C(F)(F)F",
    "observed value": "7 to 10.5"
  },
  {
    "smiles structure": "O=C(C1CCCC1)N(CCN1[C@@H]2CC[C@H]1C[C@@H](c1cccc(O)c1)C2)CC1CCCCC1",
    "observed value": "7 to 10.5"
  },
  {
    "smiles structure": "O=C(Nc1ccc(OC(F)F)cc1)N(CCN1[C@@H]2CC[C@H]1C[C@@H](c1cccc(O)c1)C2)CC1CCCCC1",
    "observed value": "7 to 10.5"
  },
  {
    "smiles structure": "CS(=O)(=O)CC(=O)N(CCN1[C@@H]2CC[C@H]1C[C@@H](c1cccc(C(N)=O)c1)C2)Cc1ccc(F)cc1.O=C(O)C(F)(F)F",
    "observed value": "7 to 10.5"
  }
]

* * *

- target: Mu-type opioid receptor (Homo sapiens) (UniProt P35372)
- Sequence (P35372 whole entry): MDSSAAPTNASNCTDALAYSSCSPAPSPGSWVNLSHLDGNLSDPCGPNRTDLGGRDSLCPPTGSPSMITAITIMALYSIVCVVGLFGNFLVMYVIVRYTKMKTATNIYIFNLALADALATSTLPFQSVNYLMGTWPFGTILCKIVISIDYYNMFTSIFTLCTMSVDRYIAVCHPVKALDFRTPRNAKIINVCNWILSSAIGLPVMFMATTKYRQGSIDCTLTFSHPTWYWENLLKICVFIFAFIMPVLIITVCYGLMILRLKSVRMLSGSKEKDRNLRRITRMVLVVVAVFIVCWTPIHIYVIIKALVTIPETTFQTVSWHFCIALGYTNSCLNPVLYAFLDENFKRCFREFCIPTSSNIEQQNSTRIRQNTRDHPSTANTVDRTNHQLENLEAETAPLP
- measurement notes: Intrinsic activity at human mu opioid receptor expressed in CHOK1 cell membranes at 0.00001 to 20 uM after 30 mins by GTP-Eu nucleotide exchange assay relative to DAMGO
- Format: functional
- condition info: CHO-K1

[
  {
    "smiles structure": "CS(=O)(=O)CC(=O)N(CCN1[C@@H]2CC[C@H]1C[C@@H](c1cccc(C(N)=O)c1)C2)CC1CCC(F)(F)CC1.O=C(O)C(F)(F)F",
    "target": "Mu-type opioid receptor (Homo sapiens) (UniProt P35372)",
    "Intrinsic activity": "< 40%"
  },
  {
    "smiles structure": "CC(=O)N(CCN1[C@@H]2CC[C@H]1C[C@@H](c1cccc(O)c1)C2)CC1CCCCC1",
    "target": "Mu-type opioid receptor (Homo sapiens) (UniProt P35372)",
    "Intrinsic activity": "< 40%"
  },
  {
    "smiles structure": "NC(=O)c1cccc([C@H]2C[C@H]3CC[C@@H](C2)N3CCN(CCCC2CCCCC2)C(=O)CO)c1",
    "target": "Mu-type opioid receptor (Homo sapiens) (UniProt P35372)",
    "Intrinsic activity": "< 40%"
  },
  {
    "smiles structure": "COCC(=O)N(CCN1[C@@H]2CC[C@H]1C[C@@H](c1cccc(C(N)=O)c1)C2)Cc1c(F)cccc1F.O=C(O)C(F)(F)F",
    "target": "Mu-type opioid receptor (Homo sapiens) (UniProt P35372)",
    "Intrinsic activity": "< 40%"
  },
  {
    "smiles structure": "CC(C)(C)C(=O)N(CCN1[C@@H]2CC[C@H]1C[C@@H](c1cccc(C(N)=O)c1)C2)Cc1ccccc1.O=C(O)C(F)(F)F",
    "target": "Mu-type opioid receptor (Homo sapiens) (UniProt P35372)",
    "Intrinsic activity": "< 40%"
  },
  {
    "smiles structure": "O=C(O)CC(=O)N(CCN1[C@@H]2CC[C@H]1C[C@@H](c1cccc(O)c1)C2)CC1CCCCC1",
    "target": "Mu-type opioid receptor (Homo sapiens) (UniProt P35372)",
    "Intrinsic activity": "< 40%"
  },
  {
    "smiles structure": "CC(C)(CO)C(=O)N(CCN1[C@@H]2CC[C@H]1C[C@@H](c1cccc(C(N)=O)c1)C2)CC1CCCC1.O=C(O)C(F)(F)F",
    "target": "Mu-type opioid receptor (Homo sapiens) (UniProt P35372)",
    "Intrinsic activity": "< 40%"
  }
]

* * *

- target: Delta-type opioid receptor (Homo sapiens)
- measurement notes: Displacement of [3H]-diprenorphine from human delta opioid receptor expressed in cell membranes
reported metric: pKi

[
  {
    "smiles structure": "NC(=O)c1cccc([C@H]2C[C@H]3CC[C@@H](C2)N3CCN(Cc2ccccc2)C(=O)C2(O)CC2)c1.O=C(O)C(F)(F)F",
    "observed value": "7 to 10.5"
  },
  {
    "smiles structure": "CS(=O)(=O)CC(=O)N(CCc1ccc(F)cc1)CCN1[C@@H]2CC[C@H]1C[C@@H](c1cccc(C(N)=O)c1)C2.O=C(O)C(F)(F)F",
    "observed value": "7 to 10.5"
  },
  {
    "smiles structure": "CN(C)CC(=O)N(CCN1[C@@H]2CC[C@H]1C[C@@H](c1cccc(C(N)=O)c1)C2)CC1CCCCC1",
    "observed value": "7 to 10.5"
  },
  {
    "smiles structure": "C[C@H](O)C(=O)N(CCN1[C@@H]2CC[C@H]1C[C@@H](c1cccc(C(N)=O)c1)C2)Cc1c(F)cccc1F.O=C(O)C(F)(F)F",
    "observed value": "7 to 10.5"
  },
  {
    "smiles structure": "NC(=O)c1cccc([C@H]2C[C@H]3CC[C@@H](C2)N3CCN(CCc2cccc(F)c2)C(=O)CO)c1.O=C(O)C(F)(F)F",
    "observed value": "7 to 10.5"
  },
  {
    "smiles structure": "NC(=O)c1cccc([C@H]2C[C@H]3CC[C@@H](C2)N3CCCN(CC2CCCCC2)C(=O)CO)c1",
    "observed value": "7 to 10.5"
  },
  {
    "smiles structure": "CN(C)CC[C@H](O)C(=O)N(CCN1[C@@H]2CC[C@H]1C[C@@H](c1cccc(C(N)=O)c1)C2)CC1CCC(F)(F)CC1.O=C(O)C(F)(F)F.O=C(O)C(F)(F)F",
    "observed value": "7 to 10.5"
  },
  {
    "smiles structure": "O=C(O)CC(=O)N(CCN1[C@@H]2CC[C@H]1C[C@@H](c1cccc(O)c1)C2)Cc1c(F)cccc1F",
    "observed value": "7 to 10.5"
  },
  {
    "smiles structure": "CCC(=O)N(CCN1[C@@H]2CC[C@H]1C[C@@H](c1cccc(O)c1)C2)CC1CCCCC1",
    "observed value": "7 to 10.5"
  },
  {
    "smiles structure": "O=C(CO)N(CCN1[C@@H]2CC[C@H]1C[C@@H](c1cccc(O)c1)C2)Cc1ccc(F)cc1",
    "observed value": "7 to 10.5"
  },
  {
    "smiles structure": "CC1(C)C(CN(CCN2[C@@H]3CC[C@H]2C[C@@H](c2cccc(C(N)=O)c2)C3)C(=O)CO)C1(C)C",
    "observed value": "7 to 10.5"
  },
  {
    "smiles structure": "NC(=O)c1cccc([C@H]2C[C@H]3CC[C@@H](C2)N3CCN(CC2CCCCC2)C(=O)C2(O)CC2)c1.O=C(O)C(F)(F)F",
    "observed value": "7 to 10.5"
  },
  {
    "smiles structure": "CC(C)CC(=O)N(CCN1[C@@H]2CC[C@H]1C[C@@H](c1cccc(O)c1)C2)CC1CCCCC1",
    "observed value": "7 to 10.5"
  },
  {
    "smiles structure": "NC(=O)c1cccc([C@H]2C[C@H]3CC[C@@H](C2)N3CCN(CC2CCCC2)C(=O)[C@H](O)CO)c1.O=C(O)C(F)(F)F",
    "observed value": "7 to 10.5"
  },
  {
    "smiles structure": "NC(=O)c1cccc([C@H]2C[C@H]3CC[C@@H](C2)N3CCN(Cc2c(F)cccc2F)C(=O)[C@H]2CC[C@H](O)CC2)c1.O=C(O)C(F)(F)F",
    "observed value": "7 to 10.5"
  }
]
